Catalogue of Alpha1A (% inh) readings, one per entry.
- Assayed system: UniProt P35348
- Sequence (P35348 whole entry): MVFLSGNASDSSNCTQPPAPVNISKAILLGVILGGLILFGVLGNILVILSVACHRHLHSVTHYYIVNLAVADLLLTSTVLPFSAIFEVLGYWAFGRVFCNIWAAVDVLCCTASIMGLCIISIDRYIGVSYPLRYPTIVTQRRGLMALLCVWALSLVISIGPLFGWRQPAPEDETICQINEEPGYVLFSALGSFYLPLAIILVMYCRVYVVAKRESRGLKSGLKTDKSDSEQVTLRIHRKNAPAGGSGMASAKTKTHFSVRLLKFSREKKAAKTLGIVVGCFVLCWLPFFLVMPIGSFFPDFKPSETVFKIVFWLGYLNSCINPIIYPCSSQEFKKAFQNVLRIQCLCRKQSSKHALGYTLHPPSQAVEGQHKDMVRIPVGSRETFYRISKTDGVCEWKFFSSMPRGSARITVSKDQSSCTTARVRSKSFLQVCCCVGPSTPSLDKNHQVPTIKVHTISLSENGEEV
- Protocol details: Primary radioligand binding assay (NIMH PDSP); note: test concentration or dose not given here
- Condition: primary radiobinding assay, [3H]Prazosin
Structures can show the parent of a compound that is named as a salt.
Give your result in % inh as a bare value.

Reference set (6 entries):
Compound	Assay endpoint	Test value
COc1ccc2c(c1)C(=O)N(CCCN1CCN(c3ccccc3OC)CC1)C2	Alpha1A (% inh)	102.2
COc1ccc2c(c1)C(=O)N(CCN1CCN(c3ccccc3OC)CC1)C2 [GFR-VII-280-HCl]	Alpha1A (% inh)	101.5
CC1Cc2ccccc2N1C(=O)CN1CCN(c2ccccc2)CC1 (stereo not shown)	Alpha1A (% inh)	64.8
COc1ccc2c(c1)C(=O)N(CCN1CCN(c3ccccc3OC)CC1)C2 [GFR-VII-280]	Alpha1A (% inh)	101.2
COc1cc2c(cc1OC)C(=O)N(CCCCN1CCN(c3ccccc3OC)CC1)C2	Alpha1A (% inh)	102.7
CC1Cc2ccccc2N1C(=O)CN1CCN(Cc2ccccc2)CC1 (stereo not shown)	Alpha1A (% inh)	69.1

Read the next record carefully.
Query Alpha1A (% inh) for COc1ccc2c(c1)CN(CCCN1CCN(c3ccccc3OC)CC1)C2=O
99.1

Taken from patent US10381110B2.
